- ASSAY_OVERVIEW: In vitro cytotoxicity / potentiation of Actinomycin D in human KB epidermoid carcinoma cells, drug resistant KB V-1 (MTT)
- Format: cell-based
- CONDITION_DETAILS: human, kb v-1 cells, 10 μM potentiating agent alone, fraction of untreated cultures, read-out: Cytotoxicity, normalized absorbance, Drug Resistant KB V-1, 0 (no Act D)
Where a name gives a salt, the structure may show the parent alone.
A collection of compounds and their measured viability at 96 h, 10 µM
QUANTITY_NAME: viability at 96 h, 10 µM (%)

• CN(C)CC/C=C1/c2ccccc2COc2c(Br)cccc21 = 36
• Brc1ccc2c(c1)/C(=C\CCN1CCCC1)c1ccccc1CO2 = 70
• Brc1ccc2c(c1)/C(=C/CCN1CCCC1)c1ccccc1OC2 = 65
• Fc1ccc2c(c1)/C(=C/CCN1CCCC1)c1ccccc1CO2 [(S)] = 72
• CN(C)CC/C=C1\c2ccccc2COc2ccc(Br)cc21 [(B), hydrochloride] = 44
• CN(C)CC/C=C1/c2ccccc2COc2ccc(F)cc21 = 80
• CN(C)CCC=C1c2ccc(Br)cc2COc2ccccc21 = 51
• Fc1ccc2c(c1)/C(=C\CCN1CCCC1)c1ccccc1CO2 = 84
• Brc1cccc2c1OCc1ccccc1C2=CCN1CCCC1 = 45
• CN(C)CC/C=C1/c2ccccc2COc2cc(Br)ccc21 [(E)] = 45
• CN(C)CC/C=C1/c2ccccc2COc2ccc(Br)cc21.Cl.Cl.Cl [(A), trihydrochloride] = 75
• Brc1ccc2c(c1)/C(=C\CN1CCCC1)c1ccccc1CO2 = 59
• CN(C)CC/C=C1/c2cc(Br)ccc2COc2ccccc21 = 34
• CCN(CC)CC/C=C1/c2ccccc2COc2ccc(Br)cc21 = 34
• CN(C)CC/C=C1\c2ccccc2COc2ccc(F)cc21 = 52
• Brc1ccc2c(c1)/C(=C/CCN1CCCC1)c1ccccc1CO2 = 8
• Brc1ccc2c(c1)/C(=C\CCN1CCCC1)c1cc(Br)ccc1OC2 [(R)] = 6
• Brc1ccc2c(c1)/C(=C/CCN1CCCC1)c1cc(Br)ccc1OC2 = 7

----------
- Test system: human KB epidermoid carcinoma cells, wildtype KB 3-1
- ASSAY_OVERVIEW: In vitro cytotoxicity / potentiation of Actinomycin D in human KB epidermoid carcinoma cells, wildtype KB 3-1 (MTT)
- Format: cell-based
- CONDITION_DETAILS: 10 μM potentiating agent + Act D 0.1 nM; 96 h; fraction of Act D alone
A collection of molecules and their measured Synergism with Actinomycin D, normalized absorbance, Wildtype KB 3-1, +ACT D
QUANTITY_NAME: Synergism with Actinomycin D, normalized absorbance, Wildtype KB 3-1, +ACT D

• CCN(CC)CC/C=C1/c2ccccc2COc2ccc(Br)cc21 [(I)] = 0.40
• CN(C)CC/C=C1/c2ccccc2COc2c(Br)cccc21 [(D)] = 0.65
• Brc1ccc2c(c1)/C(=C\CCN1CCCC1)c1cc(Br)ccc1OC2 [(R)] = 0.34
• CN(C)CC/C=C1/c2ccccc2COc2ccc(F)cc21 [(Q)] = 0.78
• CN(C)CCC=C1c2ccc(Br)cc2COc2ccccc21 [(L)] = 0.94
• Brc1ccc2c(c1)/C(=C/CCN1CCCC1)c1ccccc1CO2 [(K)] = 0.03
• Fc1ccc2c(c1)/C(=C/CCN1CCCC1)c1ccccc1CO2 [(S)] = 0.72

----------
- Test system: human KB epidermoid carcinoma cells, wildtype KB 3-1
- ASSAY_OVERVIEW: In vitro cytotoxicity / potentiation of Actinomycin D in human KB epidermoid carcinoma cells, wildtype KB 3-1 (MTT)
- Format: cell-based
- CONDITION_DETAILS: 10 μM potentiating agent + Act D 0.1 nM; 96 h; fraction of Act D alone
Structures can show the parent of a compound that is named as a salt.
A collection of compounds and their measured Synergism with Actinomycin D, normalized absorbance, Wildtype KB 3-1, +ACT D
QUANTITY_NAME: Synergism with Actinomycin D, normalized absorbance, Wildtype KB 3-1, +ACT D

- CN(C)CC/C=C1\c2ccccc2COc2ccc(Br)cc21 [(B), hydrochloride]: 0.91
- Fc1ccc2c(c1)/C(=C\CCN1CCCC1)c1ccccc1CO2: 0.83
- Brc1ccc2c(c1)/C(=C/CCN1CCCC1)c1cc(Br)ccc1OC2: 0.73
- CN(C)CC/C=C1/c2ccccc2COc2cc(Br)ccc21 [(E)]: 0.77
- CN(C)CC/C=C1\c2ccccc2COc2ccc(F)cc21: 0.71
- CN(C)CC/C=C1/c2ccccc2COc2ccc(Br)cc21.Cl.Cl.Cl: 1.00
- Brc1ccc2c(c1)/C(=C\CN1CCCC1)c1ccccc1CO2: 0.68
- Brc1cccc2c1OCc1ccccc1C2=CCN1CCCC1: 0.77
- CN(C)CC/C=C1/c2cc(Br)ccc2COc2ccccc21: 0.75
- Brc1ccc2c(c1)/C(=C\CCN1CCCC1)c1ccccc1CO2: 0.87

----------
- Tested on: Chinese hamster ovary (CHO) cells, drug resistant C5S32
- ASSAY_OVERVIEW: In vitro cytotoxicity / potentiation of Actinomycin D in Chinese hamster ovary cells, drug resistant C5S32 (MTT)
- Format: cell-based
- CONDITION_DETAILS: 10 μM potentiating agent + Act D 0.5 μM; 96 h; fraction of Act D alone (1.00)
Counter-ions that a name gives are not always drawn.
A collection of compounds and their measured Synergism with Actinomycin D, normalized absorbance, Drug Resistant C5S32, +ACT D
QUANTITY_NAME: Synergism with Actinomycin D, normalized absorbance, Drug Resistant C5S32, +ACT D

- Brc1cccc2c1OCc1ccccc1C2=CCN1CCCC1 [(J)]: 0.12
- Brc1ccc2c(c1)/C(=C\CN1CCCC1)c1ccccc1CO2 [(F)]: 0.19
- CN(C)CC/C=C1\c2cc(Br)ccc2COc2ccc(Br)cc21 [(V)]: 0.20
- C(/CN1CCCC1)=C1\c2ccccc2COc2ccccc21 [(H), hydrochloride]: 0.51
- CN(C)CCC=C1c2ccccc2COc2ccccc21 [(W), doxepin, reference compound]: 0.48
- Fc1ccc2c(c1)/C(=C/CCN1CCCC1)c1ccccc1CO2 [(S)]: 0.58
- Brc1ccc2c(c1)/C(=C/CCN1CCCC1)c1cc(Br)ccc1OC2 [(O)]: 0.38
- CN(C)CC/C=C1\c2ccccc2COc2ccc(Br)cc21 [(B), hydrochloride]: 0.37
- CN(C)CC/C=C1/c2cc(Br)ccc2COc2ccc(Br)cc21 [(U)]: 0.24
- Brc1ccc2c(c1)/C(=C/CCN1CCCC1)c1ccccc1OC2 [(M)]: 0.35
- CN(C)CC/C=C1\c2ccccc2COc2ccc(F)cc21 [(P)]: 0.38
- CN(C)CCC=C1c2ccc(Br)cc2COc2ccccc21 [(L)]: 0.42
- CCN(CC)CC/C=C1/c2ccccc2COc2ccc(Br)cc21 [(I)]: 0.36
- CN(C)CC/C=C1/c2cc(Br)ccc2COc2ccccc21 [(C)]: 0.54
- CN(C)CC/C=C1/c2ccccc2COc2ccc(F)cc21 [(Q)]: 0.37
- Brc1ccc2c(c1)/C(=C\CCN1CCCC1)c1cc(Br)ccc1OC2 [(R)]: 0.11
- CN(C)CC/C=C1/c2ccccc2COc2ccc(Br)cc21.Cl.Cl.Cl [(A)]: 0.22
- CN(C)CC/C=C1/c2ccccc2COc2cc(Br)ccc21 [(E)]: 0.35
- CCN(CC)CC/C=C1\c2ccccc2COc2ccc(Br)cc21 [(N)]: 0.33
- Brc1ccc2c(c1)/C(=C/CCN1CCCC1)c1ccccc1CO2 [(K)]: 0.28
- Fc1ccc2c(c1)/C(=C\CCN1CCCC1)c1ccccc1CO2 [(T)]: 0.53
- CN(C)CC/C=C1/c2ccccc2COc2c(Br)cccc21 [(D)]: 0.31
- Brc1ccc2c(c1)/C(=C\CCN1CCCC1)c1ccccc1CO2 [(G)]: 0.10

----------
A collection of molecules and their measured Synergism with Actinomycin D, normalized absorbance, Wildtype KB 3-1, +ACT D
- Test system: human KB epidermoid carcinoma cells, wildtype KB 3-1
- ASSAY_OVERVIEW: In vitro cytotoxicity / potentiation of Actinomycin D in human KB epidermoid carcinoma cells, wildtype KB 3-1 (MTT)
- Assay type: cell-based
- CONDITION_DETAILS: 1 μM potentiating agent + Act D 0.1 nM; 96 h; fraction of Act D alone
QUANTITY_NAME: Synergism with Actinomycin D, normalized absorbance, Wildtype KB 3-1, +ACT D

* Brc1ccc2c(c1)/C(=C\CCN1CCCC1)c1cc(Br)ccc1OC2 [(R)] | 0.84
* CN(C)CC/C=C1/c2ccccc2COc2ccc(F)cc21 | 0.91
* Fc1ccc2c(c1)/C(=C/CCN1CCCC1)c1ccccc1CO2 [(S)] | 0.79
* CN(C)CC/C=C1/c2ccccc2COc2c(Br)cccc21 | 0.86
* Brc1ccc2c(c1)/C(=C/CCN1CCCC1)c1cc(Br)ccc1OC2 | 0.81
* Fc1ccc2c(c1)/C(=C\CCN1CCCC1)c1ccccc1CO2 | 0.90
* Brc1ccc2c(c1)/C(=C/CCN1CCCC1)c1ccccc1CO2 | 0.77
* CN(C)CC/C=C1/c2cc(Br)ccc2COc2ccccc21 | 0.78
* Brc1cccc2c1OCc1ccccc1C2=CCN1CCCC1 | 0.85
* Brc1ccc2c(c1)/C(=C\CCN1CCCC1)c1ccccc1CO2 | 0.80
* Brc1ccc2c(c1)/C(=C\CN1CCCC1)c1ccccc1CO2 | 0.86
* CN(C)CC/C=C1/c2ccccc2COc2cc(Br)ccc21 [(E)] | 0.85
* CN(C)CC/C=C1/c2ccccc2COc2ccc(Br)cc21.Cl.Cl.Cl | 0.88
* CCN(CC)CC/C=C1/c2ccccc2COc2ccc(Br)cc21 | 0.99
* CN(C)CC/C=C1\c2ccccc2COc2ccc(F)cc21 | 0.72
